ASSAY PROCEDURE: folding stability dG unfold from chymotrypsin proteolysis; higher = more stable
Category | rule: reported folding stability dG unfold within range, see interval 1 (below 0.5 kcal/mol), interval 2 (0.5 kcal/mol to below 3 kcal/mol), interval 3 (3 kcal/mol or more)

Some solved entries appear below for comparison.
SAGGGPPPVEVTTSTDPSTGKVTTTVTAGPAGTRFTSSSPNGSSTTTTTVTYVGDTWEVSTSSTSSSSAGGS [r16_631_JUSTAS]    interval 2
SAGGSAGGSPAEITREEAVELAYETLPATEPAVFVFADPRLLVVYPDGADPSRNRVVEVPLLDSAGGSAGGS [r12_648_TrMRF]    interval 1
SAGGSMIPRLEERVLEVEVDSEEEAEKLKKELKEKIEKEHPGVEVKFELRKLPNGKYLLTITVVIPILSAGG [r13_17_JUSTAS]    interval 3
SAGGSAGGDYERDPNNGKMKMKPKVEPPPPPKIIQIQIPFPEEADDFMNELQDNGYPIYLSPGGSAGGSAGG [r6_872_TrROS]    interval 1
SAGGSAGGSDLVRVEMLITKIVPGTGDPVETVKIEVEVPRSEIPKVIEEIPEGYEVTEIKFIPESAGGSAGG [r6_777_JUSTAS]    interval 2

Qu. # bin lookup: classify SAGGSAGGSAMPIPKVLVLKDEGTLEEAREAALKYVKEDEKVIVKIGDKEIVIPAEELKKKSAGGSAGGSAG [r3_50_TrMRF] by its folding stability dG unfold
Ans. interval 1

Qu. Continue with SAMLTLPVESTDPARVEAAIAEARALAAQGARVEVPVRTPEGPLRFLVDPATGRVVRTDPATGATEVLPSAG [r14_423_JUSTAS]
Ans. interval 1

Qu. Continue with SAGGSAGSKPVTINWKITHPDGTPTTIPFSFPTEEQALEEALKAAEALAKEAGYPDFKIEIDEIIPSAGGSA [r15_698_TrMRF]
Ans. interval 1

Qu. Continue with SAGKDEKLVKVIVKFNDKTFEVVVKEEDLKKLVESGILKVVGKIPGKNIVAIKVEVPPPKGDPVGPTPVSAG [r5_868_TrMRF]
Ans. interval 2

Qu. Continue with SAGGSAGGSAGMLPLEELLKKNPKPIKVLVKVGDTEYLVEVTPGEKKYTIKVKPLKKSKPSAGGSAGGSAGG [r11_549_TrMRF]
Ans. interval 2

Qu. Continue with SAGGSAGGSMKTLTLEGESEEEAIEKVKEYFKKKGINYKLLKIEISEKPNGTKIYTIDIDTKKSAGGSAGGS [r12_924_JUSTAS]
Ans. interval 2

Qu. Continue with SAGMDFPESYTPIASNGKTLVFKSPTEVYIVLYSPEGGSEVRSFTPGDESVLNPFLEELKKSDYVNLNISAG [r14_12_JUSTAS]
Ans. interval 2

Qu. Continue with SAGGSAGGSKKEYLVLVYNPATGEPFPILAPDDVPFEELAKKIADEILKGLPKDVKIEFVKLGSAGGSAGGS [r20_213_TrMRF]
Ans. interval 2

Qu. Continue with SAGGPVVEKIRELLKELGYEVEVTDVKEDYVEIKVKLPDKEITLPDGSKIERLENGELRIWIPKEDLSAGGS [r8_297_TrROS_Hall]
Ans. interval 3

Qu. Continue with SAGGSAGGSMYVVKIKLKVYGENGEEYYFELELEVPEDELGEIEIELPGENLEFEAEVEVLPGSAGGSAGGS [r12_354_TrMRF]
Ans. interval 3

Qu. Continue with SAGGEMVEIVVKFKTKEELEAAIRAALPPGATVEVTVEEKDGELYLTITVPKENAERLREALKKALESAGGS [r16_43_TrROS_Hall]
Ans. interval 3

Qu. Continue with SAGGSAGGSMTIVNPGTPETLAATVKETIKAGKKVKVIYVSPDNPEPVAEAEVEGTAEELEKESAGGSAGGS [r12_241_TrMRF]
Ans. interval 1

Qu. Continue with SAGGKMKTVKVTITDKDGRKIEIVDVTVKDNKVYVVVKDKKTKKTIVLEFDTKEEAEEAIKKLLEAKSAGGS [r16_736_TrROS_Hall]
Ans. interval 2
